Test system: rat basilar arteries (contractile ETB receptors)
Assay: 48 h organ culture of basilar artery, S6c (ETB agonist)-induced contraction in wire myograph
Format: cell-based
Conditions: 1 μM inhibitor, 48 h organ culture, S6c contraction relative to 60 mM K+
metric-name: inhibition of S6c-induced contraction (initial screening groups)

smiles-record: Cn1cnc2c(F)c(Nc3ccc(Br)cc3F)c(C(=O)NOCCO)cc21
val: Some effect

smiles-record: Cn1c(=O)c(F)c(Nc2ccc(I)cc2F)c2c(=O)n(C[C@@H](O)CO)cnc21
val: Highly effective

smiles-record: CNS(=O)(=O)Nc1nccc(Cc2c(C)c3ccc(Oc4ncccn4)cc3oc2=O)c1F
val: Some effect

smiles-record: O=C(c1ccc(F)c(F)c1Nc1ccc(I)cc1F)N1CC(O)([C@@H]2CCCCN2)C1
val: Highly effective
